src = paper PMC11489226

Experiment Description: PCB concentrations in plasma of HELPcB participants (2010)
Type: in vivo, human
Test Conditions: human, plasma, other: occupational exposure, HELPcB participant four, sample of 2010
# Lookup of reported concentration at 2010 calendar year keyed by entry
Metric Name: concentration at 2010 calendar year (ng/mL)

Clc1cc(Cl)c(-c2cc(Cl)c(Cl)c(Cl)c2Cl)cc1Cl
0.508
Clc1ccc(Cl)c(-c2cc(Cl)c(Cl)cc2Cl)c1
0.005
Clc1ccc(Cl)c(-c2cc(Cl)ccc2Cl)c1
0.005
Clc1ccc(-c2ccc(Cl)cc2Cl)cc1
0.023

====

System: CYP2A6 (Homo sapiens, UniProt P11509)
Sequence (P11509 whole entry): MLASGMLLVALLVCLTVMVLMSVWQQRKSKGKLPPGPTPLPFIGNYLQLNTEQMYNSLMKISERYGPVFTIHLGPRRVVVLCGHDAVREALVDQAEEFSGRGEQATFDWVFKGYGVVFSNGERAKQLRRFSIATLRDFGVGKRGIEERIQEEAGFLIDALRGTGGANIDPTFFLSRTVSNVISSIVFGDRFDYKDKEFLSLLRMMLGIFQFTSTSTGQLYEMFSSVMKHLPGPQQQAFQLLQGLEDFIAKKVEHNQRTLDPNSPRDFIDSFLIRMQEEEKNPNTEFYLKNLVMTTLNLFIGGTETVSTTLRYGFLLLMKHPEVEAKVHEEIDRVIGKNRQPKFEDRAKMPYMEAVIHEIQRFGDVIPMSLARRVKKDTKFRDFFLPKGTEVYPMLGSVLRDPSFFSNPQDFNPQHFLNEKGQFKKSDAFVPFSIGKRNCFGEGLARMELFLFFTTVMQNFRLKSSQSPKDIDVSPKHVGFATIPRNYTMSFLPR
Experiment Description: Metabolism in transgenic HEK293 cells expressing CYP2A6
Type: in vitro ADME
Design: V5-His (vector-encoded) (C); expressed in transfected cells
Test Conditions: CYP2A6 Clone C5; 20 µM parent PCB, 24 h, supernatant
Metric Name: Quantification of metabolites generated from PCB28, 52, and 101

Oc1cc(Cl)c(-c2cc(Cl)c(Cl)cc2Cl)cc1Cl
55,93 nM
Oc1cc(Cl)c(-c2ccc(Cl)cc2)cc1Cl
0,11 nM
Oc1cc(-c2ccc(Cl)cc2)c(Cl)cc1Cl
0,22 nM
Oc1cc(Cl)cc(-c2cc(Cl)c(Cl)cc2Cl)c1Cl
4,2 nM
Oc1cc(Cl)c(-c2cc(Cl)ccc2Cl)cc1Cl
30,78 nM
